B1: library; numbered along this chain (parent)
chain: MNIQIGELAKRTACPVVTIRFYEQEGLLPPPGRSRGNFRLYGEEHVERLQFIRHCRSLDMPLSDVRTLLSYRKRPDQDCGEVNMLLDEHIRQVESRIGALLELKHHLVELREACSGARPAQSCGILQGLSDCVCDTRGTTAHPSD

- Variants of: B1
- assay remarks: sfGFP reporter fluorescence (15 h) (µM FITC); higher = stronger transcriptional activation
- test parameters: library round: Round 1; ligand: 30 µM Zn
attribute measured: sfGFP reporter fluorescence
# output: bare number, no unit

Some solved cases for reference:
MNIQIGELAKRTACPVVTIRFYEQEGLLPPPGRSRGNFRLYGEEHVERLQFIRHCRSLDMPLSDVRTLLSYRKRPDQDCGEVNMLLDEHIRQVESRIGALLELKHHLVELREACSGARPAQSCGILQGLSDCVCRTRGTTAHASD [D135R P143A] :: 0.317
MNIQIGELAKRTACPVVTIRFYEQEGLLPPPGRSRGNFRLYGEEHVERLQFIRHCRSLDMPLSDVRTLLSYRKRPDQDCGEVTMLLDEHIRQVESRIGALLELKHHLLELREACSGARPAQSCGILQGLSCCVCDTRGTTAHTSD [N83T V108L D131C P143T] :: 0.0975
MNIQIGELAKRTACPVVTIRFYEQEGLLPPPGRSRGNFRLYGEEHVERLQFIRHCRSLDMPLSDVRTLLSYRKRPDQDCGQVNMLLDEHIRQVESRIGALLELKHHLVELREACSGARPAQSCGILQGLSDCVCDTRGTTAHPSD [E81Q] :: 0.189

Turning to the following variant.
Query block: sfGFP reporter fluorescence lookup needed for MNIQIGELAKRTACPVVTIRFYEQEGLLPPPGRSRGNFRLYGEEHVERLQFIRHCRSLDMPLSDVRTLLSYRKRPDQDCGEVTMLLDEHIRQVESRTGALLELKHHLVELREACSGARPAQSCGILQGLSDCVCDTRGTTAHPSD [N83T I97T] , thanks.
Result block: 0.102
